Would you kindly list self-cleavage for each of these variants?
B1: CPEB3 Ribozyme (parent)
chain: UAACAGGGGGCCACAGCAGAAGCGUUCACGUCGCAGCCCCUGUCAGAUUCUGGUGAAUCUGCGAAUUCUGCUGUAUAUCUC

variants of: B1; experiment: self-cleavage, relative activity (ratio to wild type); higher = more cleavage; in vitro, sequencing
Hey, just send me the number, nothing else.

Q) So what does the record say about self-cleavage for A28C A56G ?
A) 0.3

Q) So what does the record say about self-cleavage for G42A G70A ?
A) 0.19

Q) So what does the record say about self-cleavage for U60C G61U ?
A) 0.26

Q) So what does the record say about self-cleavage for `C59G` ?
A) 0.32

Q) So what does the record say about self-cleavage for `G19C` ?
A) 0.29

Q) So what does the record say about self-cleavage for U49C C50A ?
A) 0.78

Q) So what does the record say about self-cleavage for `A35U` ?
A) 0.54

Q) So what does the record say about self-cleavage for C11G C32U ?
A) 0.16

Q) So what does the record say about self-cleavage for C4U G63U ?
A) 1.23

Q) So what does the record say about self-cleavage for G7C A21G ?
A) 0.34

Q) So what does the record say about self-cleavage for C12U G36C ?
A) 0.17

Q) So what does the record say about self-cleavage for A21U C27G ?
A) 0.07

Q) So what does the record say about self-cleavage for A18U C39U ?
A) 0.3

Q) So what does the record say about self-cleavage for A13U U74A ?
A) 1.23

Q) So what does the record say about self-cleavage for G10A U41A ?
A) 0.29

Q) So what does the record say about self-cleavage for A15G A56C ?
A) 0.35

Q) So what does the record say about self-cleavage for G8A C27U ?
A) 0.08

Q) So what does the record say about self-cleavage for C34U U67C ?
A) 0.12

Q) So what does the record say about self-cleavage for G24A A75G ?
A) 0.32

Q) So what does the record say about self-cleavage for A15U U51A ?
A) 0.82

Q) So what does the record say about self-cleavage for U69C G73A ?
A) 0.99

Q) So what does the record say about self-cleavage for G16U C32A ?
A) 0.2

Q) So what does the record say about self-cleavage for G16U G36A ?
A) 0.37

Q) So what does the record say about self-cleavage for `U58C` ?
A) 0.56

Q) So what does the record say about self-cleavage for G30A U78A ?
A) 0.53

Q) So what does the record say about self-cleavage for C17U U60A ?
A) 0.23

Q) So what does the record say about self-cleavage for G24C A64G ?
A) 0.45

Q) So what does the record say about self-cleavage for G19U U48C ?
A) 0.2

Q) So what does the record say about self-cleavage for U31C U48C ?
A) 0.37

Q) So what does the record say about self-cleavage for C4U C12U ?
A) 1.21

Q) So what does the record say about self-cleavage for A3G G53C ?
A) 1.13

Q) So what does the record say about self-cleavage for C32A A35G ?
A) 0.87

Q) So what does the record say about self-cleavage for A2G A45C ?
A) 0.5

Q) So what does the record say about self-cleavage for A13U A15C ?
A) 0.88

Q) So what does the record say about self-cleavage for A47U U76A ?
A) 0.82

Q) So what does the record say about self-cleavage for U31A C34G ?
A) 0.2

Q) So what does the record say about self-cleavage for U25C U54C ?
A) 0.27

Taken from the RNAGym collection of RNA variant scans (doi:10.1093/nar/gkz1192).
